Catalogue of compounds with associated Kd
# TARGET OR SYSTEM: cpSRP54–His (recombinant mature cpSRP54) (Arabidopsis thaliana, UniProt P37107, Q185R)
# Construct: mature protein, residues 79-564 (transit peptide removed), C-terminal His6, E. coli Rosetta (DE3), EDTA-treated then SEC in Mg buffer
# Sequence (P37107 79-564 Q185R): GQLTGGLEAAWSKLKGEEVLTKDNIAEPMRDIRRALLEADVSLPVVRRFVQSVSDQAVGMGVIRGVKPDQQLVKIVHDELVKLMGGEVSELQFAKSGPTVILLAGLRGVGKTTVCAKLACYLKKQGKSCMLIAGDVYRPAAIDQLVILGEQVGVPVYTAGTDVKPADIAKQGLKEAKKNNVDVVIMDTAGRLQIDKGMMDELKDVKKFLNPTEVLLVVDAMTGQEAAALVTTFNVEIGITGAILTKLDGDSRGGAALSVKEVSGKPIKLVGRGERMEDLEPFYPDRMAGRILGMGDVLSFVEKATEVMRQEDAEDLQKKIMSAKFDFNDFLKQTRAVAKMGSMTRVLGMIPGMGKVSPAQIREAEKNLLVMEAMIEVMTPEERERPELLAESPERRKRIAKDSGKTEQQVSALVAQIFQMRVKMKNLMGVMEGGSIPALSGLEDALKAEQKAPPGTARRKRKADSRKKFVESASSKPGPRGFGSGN
# ASSAY METHOD TEXT: isothermal titration calorimetry
# CONDITION SET: read-out: dissociation constant
Your answer is read as µM, so omit the unit and give the number.

| SMILES STRUCTURE | READOUT UNIT | REPORTED VALUE |
| --- | --- | --- |
| Nc1nc2c(ncn2[C@@H]2O[C@H](COP(=O)(O)OP(=O)(O)OP(=O)(O)O)[C@@H](O)[C@H]2O)c(=O)[nH]1 | µM | 17.3 |

stdin: API: value(readout=Kd, system=cpSRP54–His (recombinant mature cpSRP54) (Arabidopsis thaliana, UniProt P37107, Q185R)) for record `Nc1nc2c(ncn2[C@@H]2O[C@H](COP(=O)(O)OP(=O)(O)O)[C@@H](O)[C@H]2O)c(=O)[nH]1`
stdout: 30.3
